Tested on: S. aureus strain USA300-0114
measurement-notes: AK assay 384-well format, Prestwick library screening
Type: cell-based, Staphylococcus aureus
run-parameters: Staphylococcus aureus, USA300, 3 h; 50 μM final drug concentration; planktonic; cutoff for positive 3-fold increase; read-out: AK-based Prestwick Library Screening Results, S. aureus (fold increase in extracellular AK activity)
Counter-ions that a name gives are not always drawn.
Is fold induction at 50 µM at least 1? Then Y. If not, N.

{"compound": "COc1cc([S+](C)[O-])ccc1-c1nc2ncccc2[nH]1 (centres unmarked)", "target": "S. aureus strain USA300-0114", "category": "N"}
{"compound": "COC(=O)C1=C(C)NC(C)=C(C(=O)OCCN(C)Cc2ccccc2)C1c1cccc([N+](=O)[O-])c1 (centres unmarked) [Nicardipine hydrochloride]", "target": "S. aureus strain USA300-0114", "category": "N"}

In the following, a different compound is considered.
Query string: Tell me whether fold induction at 50 µM is at least 1 here: `C[C@H](CCC(=O)NCC(=O)O)[C@H]1CC[C@H]2[C@@H]3[C@H](O)C[C@@H]4C[C@H](O)CC[C@]4(C)[C@H]3C[C@H](O)[C@]12C`
Result string: Y
